A collection of molecules and their measured IC50
# Test system: Myc
# protocol: Myc inhibition assay: Myc expression per cell by anti-Myc immunofluorescence, high-content imaging
# Format: cell-based, human (patient-derived medulloblastoma xenograft cells)
# condition_set: Table 1; medulloblastoma PDX cells, 4 h; read-out: IC50 (Myc inhibition)
experimental_endpoint: IC50

>>> measured("COc1ncc(-c2ccnc(Nc3cccc(C(F)(F)F)c3)n2)s1")
"200 to 1000 nM"
>>> measured("CC(C)n1cnc2ccc(-c3ccnc(Nc4cccc(F)c4)n3)cc21 [Compound 277A]")
"< 200 nM"
>>> measured("Oc1cc(-c2ccnc(Nc3cncc(F)c3)n2)ccn1")
"1000 to 10000 nM"
>>> measured("FC(F)c1cccc(Nc2nccc(-c3ccc4nc[nH]c4c3)n2)c1")
"< 200 nM"
>>> measured("Fc1ccccc1Nc1nccc(-c2ccc3[nH]cnc3c2)n1")
"1000 to 10000 nM"
>>> measured("CC(C)(C)NS(=O)(=O)c1cccc(Nc2nccc(-c3ccc4[nH]cnc4c3)n2)c1")
"200 to 1000 nM"
>>> measured("O=C(Nc1ccccc1)c1cccc(Nc2nccc(-c3ccc4[nH]cnc4c3)n2)c1")
"< 200 nM"
>>> measured("CN(c1ccccc1)c1ncnc(-c2ccnc(O)c2)n1")
"10000 to 100000 nM"
>>> measured("FC(F)(F)c1cccc(Nc2nccc(N3CCc4[nH]cnc4C3)n2)c1")
"1000 to 10000 nM"
